These entries and their values trace back to ChEMBL document CHEMBL4706507.

Target: ABCB1 (Homo sapiens)
Sequence (P08183 whole entry): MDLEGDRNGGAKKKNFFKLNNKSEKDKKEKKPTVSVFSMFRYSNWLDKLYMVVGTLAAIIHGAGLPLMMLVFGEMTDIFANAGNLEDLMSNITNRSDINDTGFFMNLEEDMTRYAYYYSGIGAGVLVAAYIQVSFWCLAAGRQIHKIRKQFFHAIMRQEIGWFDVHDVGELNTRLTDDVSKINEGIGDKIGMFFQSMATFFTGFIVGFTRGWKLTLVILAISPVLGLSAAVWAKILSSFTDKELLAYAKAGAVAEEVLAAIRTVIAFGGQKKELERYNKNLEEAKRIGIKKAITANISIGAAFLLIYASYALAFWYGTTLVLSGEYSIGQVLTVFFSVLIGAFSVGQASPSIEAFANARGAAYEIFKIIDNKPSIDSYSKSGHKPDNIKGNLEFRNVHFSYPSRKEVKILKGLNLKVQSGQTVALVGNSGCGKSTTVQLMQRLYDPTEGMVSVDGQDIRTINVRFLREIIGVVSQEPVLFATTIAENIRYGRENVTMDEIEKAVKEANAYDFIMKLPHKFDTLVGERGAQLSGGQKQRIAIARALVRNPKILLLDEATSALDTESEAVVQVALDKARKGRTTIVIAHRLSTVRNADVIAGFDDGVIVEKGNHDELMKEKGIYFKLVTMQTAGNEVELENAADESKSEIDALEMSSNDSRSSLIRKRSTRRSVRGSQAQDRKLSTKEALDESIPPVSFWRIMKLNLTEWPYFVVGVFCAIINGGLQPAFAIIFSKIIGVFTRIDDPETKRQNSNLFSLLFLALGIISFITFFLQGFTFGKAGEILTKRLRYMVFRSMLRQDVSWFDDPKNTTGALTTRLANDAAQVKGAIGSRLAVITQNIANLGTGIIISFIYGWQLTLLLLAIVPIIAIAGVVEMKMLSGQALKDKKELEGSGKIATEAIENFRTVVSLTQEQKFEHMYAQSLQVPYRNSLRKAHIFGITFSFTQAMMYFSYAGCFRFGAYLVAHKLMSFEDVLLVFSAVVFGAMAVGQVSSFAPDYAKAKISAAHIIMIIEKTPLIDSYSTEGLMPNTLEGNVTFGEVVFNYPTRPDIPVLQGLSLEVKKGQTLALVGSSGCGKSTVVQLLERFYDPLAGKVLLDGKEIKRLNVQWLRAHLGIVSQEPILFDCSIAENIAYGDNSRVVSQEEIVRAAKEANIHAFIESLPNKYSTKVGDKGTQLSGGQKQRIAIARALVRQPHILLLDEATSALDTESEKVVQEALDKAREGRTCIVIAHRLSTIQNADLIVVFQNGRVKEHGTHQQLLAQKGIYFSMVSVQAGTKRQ
Assay: Inhibition of ABCB1 (unknown origin) expressed in NIH/3T3 cells assessed as maximal inhibition at 1 uM by FACS based flow cytometry
Readout: inhibition at 1 µM (%)

COC(=O)[C@H](CC(C)C)NC(=O)c1cc(=O)c2c(OCc3ccccc3Br)cccc2o1 = 7
CC[C@@H](C)[C@H](NC(=O)c1cc(=O)c2c(OCc3ccc(Br)cc3)cccc2o1)C(=O)N[C@H](C(=O)OC)C(C)C = 2
COC(=O)[C@H](Cc1ccccc1)NC(=O)c1cc(=O)c2c(OCc3ccc(Br)cc3)cccc2o1 = 6
COC(=O)[C@@H](Cc1c[nH]c2ccccc12)NC(=O)c1cc(=O)c2c(OCc3ccc(Br)cc3)cccc2o1 = 7
COC(=O)[C@H](Cc1c[nH]c2ccccc12)NC(=O)c1cc(=O)c2c(OCc3ccccc3Br)cccc2o1 = 7
CC[C@@H](C)[C@H](NC(=O)c1cc(=O)c2c(OCc3ccccc3Br)cccc2o1)C(=O)N[C@@H](CC(C)C)C(=O)OC = 2
CC[C@@H](C)[C@H](NC(=O)c1cc(=O)c2c(OCc3ccccc3Br)cccc2o1)C(=O)N[C@H](C(=O)OC)C(C)C = 0
COC(=O)[C@@H](NC(=O)c1cc(=O)c2c(OCc3ccccc3Br)cccc2o1)C(C)C = 8
CC[C@@H](C)[C@H](NC(=O)c1cc(=O)c2c(OCc3ccc(Br)cc3)cccc2o1)C(=O)N[C@@H](CC(C)C)C(=O)OC = 4
COC(=O)[C@H](Cc1ccccc1)NC(=O)c1cc(=O)c2c(OCc3ccccc3Br)cccc2o1 = 5
COC(=O)[C@H](Cc1c[nH]c2ccccc12)NC(=O)c1cc(=O)c2c(OCc3ccc(Br)cc3)cccc2o1 = 7
